Source listed as patent US4468511A.

The reader will find reported MIC values listed item by item below.
# Test system: Streptococcus pneumoniae Park I
# test.name: MIC, standard agar-dilution assay
# Type: cell-based
# condition.summary: Streptococcus pneumoniae
# value in mg/L; strip the unit string

// worked examples, MIC included
CCC1OC(=O)CC(O)C(C)C(OC2OC(C)C(O)C(N(C)C)C2O)C(CCN2C(=O)c3ccccc3C2=O)CC(C)C(=O)C=CC(C)=CC1C (centres unmarked) [Compound 22]: 4
CCC1OC(=O)CC(O)C(C)C(OC2OC(C)C(OC(C)=O)C(N(C)C)C2OC(C)=O)C(CCOC(=O)Cc2ccccc2)CC(C)C(=O)C=CC(C)=CC1COC(=O)Cc1ccccc1 (centres unmarked) [Compound 55]: 1
CCC1OC(=O)CC(O)C(C)C(OC2OC(C)C(O)C(N(C)C)C2O)C(CCNCc2ccccc2)CC(C)C(=O)C=CC(C)=CC1CO (centres unmarked) [Compound 4, 20-N-Benzylamino-20-deoxy-20-dihydro-OMT]: 2
CCC1OC(=O)CC(O)C(C)C(OC2OC(C)C(OC(C)=O)C(N(C)C)C2OC(C)=O)C(CCOC(=O)Cc2ccccc2)CC(C)C(=O)C=CC(C)=CC1CO (centres unmarked) [Compound 54]: 0.5

Shift focus to the following entry.
Query block: Dear colleague, please send me the reported MIC for CCC1OC(=O)CC(O)C(C)C(OC2OC(C)C(O)C(N(C)C)C2O)C(CCN2C(=O)c3ccccc3C2=O)CC(C)C(=O)C=CC(C)=CC1CN1C(=O)c2ccccc2C1=O (centres unmarked) [Compound 31] when you can.
Result block: 2

---

# Test system: Pasteurella multocida 17E
# test.name: MIC, conventional broth-dilution microtiter test
# Assay type: cell-based
# condition.summary: Pasteurella multocida, 17E
# Experimental: Certain of the derivatives are active against some gram-negative bacteria, such as Pasteurella species. The MIC's in Table II were determined by standard agar-dilution assays. The MIC's in Table III were obtained using a conventional broth-dilution microtiter test.
Each entry below carries its recorded MIC.
Supply the numeric figure in µg/mL, leaving out any unit text.

CCC1OC(=O)CC(O)C(C)C(OC2OC(C)C(O)C(N(C)C)C2O)C(CCO)CC(C)C(=O)C=CC(C)=CC1CN1CCCCCCC1 (stereo not drawn): 3.12

Query block: Enter recorded MIC with Pasteurella multocida 17E for CCC1CC(C)C(=O)C=CC(C)=CC(COC(=O)Cc2ccccc2)C(CC)OC(=O)CC(O)C(C)C1OC1OC(C)C(O)C(N(C)C)C1O (stereo not drawn) here.
Result block: 12.5

Query block: # return MIC for CCC1OC(=O)CC(O)C(C)C(OC2OC(C)C(O)C(N(C)C)C2O)C(CCOC(=O)Cc2ccccc2)CC(C)C(=O)C=CC(C)=CC1COC(=O)Cc1ccccc1 (stereo not drawn) [Compound 30, 20,23-Di-O-Phenylacetyl-20-dihydro-OMT] , test system: Pasteurella multocida 17E
Result block: 12.5

Query block: Determine reported MIC for CCC1OC(=O)CC(O)C(C)C(OC2OC(C)C(O)C(N(C)C)C2O)C(CCOc2ccccc2)CC(C)C(=O)C=CC(C)=CC1CN1CCCCCCC1 (stereo not drawn) ; test system: Pasteurella multocida 17E.
Result block: 3.12

Query block: Answer briefly: MIC recorded on Pasteurella multocida 17E for CCC1CC(C)C(=O)C=CC(C)=CC(CN2CCCCCCC2)C(CC)OC(=O)CC(O)C(C)C1OC1OC(C)C(O)C(N(C)C)C1O (stereo not drawn)
Result block: 0.78

Query block: Fill in MIC for CCC1OC(=O)CC(O)C(C)C(OC2OC(C)C(OC(C)=O)C(N(C)C)C2OC(C)=O)C(CCOC(=O)Cc2ccccc2)CC(C)C(=O)C=CC(C)=CC1CO (stereo not drawn) tested with Pasteurella multocida 17E.
Result block: 12.5
